# measured.on: T1, TLN1-F3–ΔKIND2^Y13A fusion protein
# T1 chain: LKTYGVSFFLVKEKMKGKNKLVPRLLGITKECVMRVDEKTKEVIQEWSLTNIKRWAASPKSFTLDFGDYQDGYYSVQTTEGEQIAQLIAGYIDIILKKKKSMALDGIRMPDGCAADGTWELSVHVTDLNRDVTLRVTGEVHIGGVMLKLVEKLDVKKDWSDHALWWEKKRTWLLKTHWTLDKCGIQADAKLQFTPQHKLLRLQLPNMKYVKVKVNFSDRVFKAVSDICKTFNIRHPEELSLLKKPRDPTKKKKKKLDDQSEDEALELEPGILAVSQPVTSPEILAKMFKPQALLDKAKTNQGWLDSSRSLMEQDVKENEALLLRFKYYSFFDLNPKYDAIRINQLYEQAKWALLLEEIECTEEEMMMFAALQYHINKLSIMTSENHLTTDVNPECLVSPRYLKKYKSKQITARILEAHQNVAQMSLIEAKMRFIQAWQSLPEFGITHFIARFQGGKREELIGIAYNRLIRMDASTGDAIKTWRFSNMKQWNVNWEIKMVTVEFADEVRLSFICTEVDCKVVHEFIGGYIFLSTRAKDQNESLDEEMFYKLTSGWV
# assay.notes: MST; TLN1-F3 contribution
No end group written: not given here.
quantity: Kd (µM)
One number for each entry, in µM.

Prompt line: Report Kd for {ATTO 488}-KLLMIIHDRREFAKFEKEKMNAKWDTGENPIYKSAVTTVVNPKYEGK [ATTO 488-labelled β1-CT (488–β1-CT)]
Response line: 15.7

The measured values listed here are drawn from paper PMC10716038.
